B1: CHMP4C (parent)
chain: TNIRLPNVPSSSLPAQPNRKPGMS

Variants of: B1
test protocol: protein stability index of a GFP-peptide fusion (GPS, HEK-293T) (PSI 1-6); higher = more stable;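 note: lentivirally expressed fusions sorted by FACS into six bins by GFP to DsRed ratio, PSI derived from sequencing read proportions per bin multiplied by bin number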
assay setup: c terminus: a fixed tail appended
quantity kind: protein stability index
// no unit string in output, number only

Data request: Quickly give me recorded protein stability index for `S10W`
Data returned: 4.46

Data request: Quickly give me recorded protein stability index for `P14C`
Data returned: 3.94

Data request: Quickly give me recorded protein stability index for `R4G`
Data returned: 4.69

Data request: Quickly give me recorded protein stability index for `A15Y`
Data returned: 4.26

Data request: Quickly give me recorded protein stability index for `R19E`
Data returned: 4.86

Data request: Quickly give me recorded protein stability index for `S11K`
Data returned: 4.49

Data request: Quickly give me recorded protein stability index for `N18Y`
Data returned: 4.36

Data request: Quickly give me recorded protein stability index for `G22I`
Data returned: 4.39

Data request: Quickly give me recorded protein stability index for `S24F`
Data returned: 4.21

Data request: Quickly give me recorded protein stability index for `R4T`
Data returned: 4.61

Data request: Quickly give me recorded protein stability index for `L5G`
Data returned: 5.1

Data request: Quickly give me recorded protein stability index for `P6R`
Data returned: 4.04

Data request: Quickly give me recorded protein stability index for `M23I`
Data returned: 4.37

Data request: Quickly give me recorded protein stability index for `L5A`
Data returned: 4.71

Data request: Quickly give me recorded protein stability index for `S11Q`
Data returned: 4.53

Data request: Quickly give me recorded protein stability index for `K20L`
Data returned: 4.41

Data request: Quickly give me recorded protein stability index for `N2K`
Data returned: 4.24

Data request: Quickly give me recorded protein stability index for `L5K`
Data returned: 4.71

Data request: Quickly give me recorded protein stability index for `L5R`
Data returned: 4.42

Data request: Quickly give me recorded protein stability index for `G22W`
Data returned: 3.75

Data request: Quickly give me recorded protein stability index for `N7W`
Data returned: 4.11

Data request: Quickly give me recorded protein stability index for `P6G`
Data returned: 4.26

Data request: Quickly give me recorded protein stability index for `I3T`
Data returned: 4.82

Data request: Quickly give me recorded protein stability index for `R19Y`
Data returned: 3.94

Data request: Quickly give me recorded protein stability index for `P6L`
Data returned: 2.99

Data request: Quickly give me recorded protein stability index for `N7L`
Data returned: 4.67

Data request: Quickly give me recorded protein stability index for `K20Q`
Data returned: 4.55

Data request: Quickly give me recorded protein stability index for `P21S`
Data returned: 4.41

Data request: Quickly give me recorded protein stability index for `I3H`
Data returned: 4.62

Data request: Quickly give me recorded protein stability index for `P9L`
Data returned: 3.85

Data request: Quickly give me recorded protein stability index for `N2F`
Data returned: 3.43

Data request: Quickly give me recorded protein stability index for `S12E`
Data returned: 5.06

Data request: Quickly give me recorded protein stability index for `R4P`
Data returned: 4.73

Data request: Quickly give me recorded protein stability index for `N2E`
Data returned: 5.05

Data request: Quickly give me recorded protein stability index for `N7C`
Data returned: 4.56

Data request: Quickly give me recorded protein stability index for `N7S`
Data returned: 4.89

Data request: Quickly give me recorded protein stability index for `P14H`
Data returned: 4.37

Data request: Quickly give me recorded protein stability index for `P9N`
Data returned: 4.89

Data request: Quickly give me recorded protein stability index for `P17I`
Data returned: 3.87

Data request: Quickly give me recorded protein stability index for `V8N`
Data returned: 4.58

Data request: Quickly give me recorded protein stability index for `L5F`
Data returned: 4.38

Data request: Quickly give me recorded protein stability index for `K20M`
Data returned: 3.75

Data request: Quickly give me recorded protein stability index for `N2A`
Data returned: 4.67

Data request: Quickly give me recorded protein stability index for `K20W`
Data returned: 3.41

Data request: Quickly give me recorded protein stability index for `S10K`
Data returned: 4.24

Data request: Quickly give me recorded protein stability index for `V8S`
Data returned: 4.49

Data request: Quickly give me recorded protein stability index for `R19F`
Data returned: 4.13

Data request: Quickly give me recorded protein stability index for `P14L`
Data returned: 4.19

Data request: Quickly give me recorded protein stability index for `P17H`
Data returned: 4.26

Data request: Quickly give me recorded protein stability index for `N7Q`
Data returned: 4.1

Data request: Quickly give me recorded protein stability index for `P21W`
Data returned: 3.4

Data request: Quickly give me recorded protein stability index for `L5D`
Data returned: 5.05

Data request: Quickly give me recorded protein stability index for `P14D`
Data returned: 4.5

Data request: Quickly give me recorded protein stability index for `P9C`
Data returned: 4.33

Data request: Quickly give me recorded protein stability index for `R4Q`
Data returned: 4.19

Data request: Quickly give me recorded protein stability index for `G22F`
Data returned: 4.2

Data request: Quickly give me recorded protein stability index for `I3N`
Data returned: 4.81

Data request: Quickly give me recorded protein stability index for `N2M`
Data returned: 4.66

Data request: Quickly give me recorded protein stability index for `P14G`
Data returned: 4.67

Data request: Quickly give me recorded protein stability index for `S12Y`
Data returned: 4.12

Data request: Quickly give me recorded protein stability index for `N7K`
Data returned: 4.52

Data request: Quickly give me recorded protein stability index for `R19L`
Data returned: 4.58

Data request: Quickly give me recorded protein stability index for `R19H`
Data returned: 4.33

Data request: Quickly give me recorded protein stability index for `G22H`
Data returned: 4.32

Data request: Quickly give me recorded protein stability index for `A15S`
Data returned: 4.56

Data request: Quickly give me recorded protein stability index for `R4Y`
Data returned: 4.24

Data request: Quickly give me recorded protein stability index for `N18G`
Data returned: 4.25

Data request: Quickly give me recorded protein stability index for `I3A`
Data returned: 4.73

Data request: Quickly give me recorded protein stability index for `P6K`
Data returned: 4.23

Data request: Quickly give me recorded protein stability index for `M23D`
Data returned: 5.58

Data request: Quickly give me recorded protein stability index for `A15F`
Data returned: 4.21

Data request: Quickly give me recorded protein stability index for `P21D`
Data returned: 4.59

Data request: Quickly give me recorded protein stability index for `P17C`
Data returned: 3.76

Data request: Quickly give me recorded protein stability index for `S10I`
Data returned: 4.6

Data request: Quickly give me recorded protein stability index for `I3D`
Data returned: 4.63

Data request: Quickly give me recorded protein stability index for `A15R`
Data returned: 4.71

Data request: Quickly give me recorded protein stability index for `P21K`
Data returned: 4.65

Data request: Quickly give me recorded protein stability index for `L5W`
Data returned: 4.31

Data request: Quickly give me recorded protein stability index for `S11T`
Data returned: 3.48

Data request: Quickly give me recorded protein stability index for `P17Y`
Data returned: 4.05

Data request: Quickly give me recorded protein stability index for `G22V`
Data returned: 4.29

Data request: Quickly give me recorded protein stability index for `S11I`
Data returned: 4.68

Data request: Quickly give me recorded protein stability index for `K20V`
Data returned: 3.66

Data request: Quickly give me recorded protein stability index for `I3P`
Data returned: 4.77

Data request: Quickly give me recorded protein stability index for `T1D`
Data returned: 4.71

Data request: Quickly give me recorded protein stability index for `L13V`
Data returned: 4.88

Data request: Quickly give me recorded protein stability index for `R19D`
Data returned: 4.66

Data request: Quickly give me recorded protein stability index for `L13I`
Data returned: 4.54

Data request: Quickly give me recorded protein stability index for `T1C`
Data returned: 4.14

Data request: Quickly give me recorded protein stability index for `P14R`
Data returned: 4.4

Data request: Quickly give me recorded protein stability index for `L13K`
Data returned: 4.46
